- system_under_test: EGFR (Homo sapiens, UniProt P00533)
- Construct: endogenous in cells; host or cells: A431 cells (ATCC CRL-1555)
- Sequence (P00533 25-1210): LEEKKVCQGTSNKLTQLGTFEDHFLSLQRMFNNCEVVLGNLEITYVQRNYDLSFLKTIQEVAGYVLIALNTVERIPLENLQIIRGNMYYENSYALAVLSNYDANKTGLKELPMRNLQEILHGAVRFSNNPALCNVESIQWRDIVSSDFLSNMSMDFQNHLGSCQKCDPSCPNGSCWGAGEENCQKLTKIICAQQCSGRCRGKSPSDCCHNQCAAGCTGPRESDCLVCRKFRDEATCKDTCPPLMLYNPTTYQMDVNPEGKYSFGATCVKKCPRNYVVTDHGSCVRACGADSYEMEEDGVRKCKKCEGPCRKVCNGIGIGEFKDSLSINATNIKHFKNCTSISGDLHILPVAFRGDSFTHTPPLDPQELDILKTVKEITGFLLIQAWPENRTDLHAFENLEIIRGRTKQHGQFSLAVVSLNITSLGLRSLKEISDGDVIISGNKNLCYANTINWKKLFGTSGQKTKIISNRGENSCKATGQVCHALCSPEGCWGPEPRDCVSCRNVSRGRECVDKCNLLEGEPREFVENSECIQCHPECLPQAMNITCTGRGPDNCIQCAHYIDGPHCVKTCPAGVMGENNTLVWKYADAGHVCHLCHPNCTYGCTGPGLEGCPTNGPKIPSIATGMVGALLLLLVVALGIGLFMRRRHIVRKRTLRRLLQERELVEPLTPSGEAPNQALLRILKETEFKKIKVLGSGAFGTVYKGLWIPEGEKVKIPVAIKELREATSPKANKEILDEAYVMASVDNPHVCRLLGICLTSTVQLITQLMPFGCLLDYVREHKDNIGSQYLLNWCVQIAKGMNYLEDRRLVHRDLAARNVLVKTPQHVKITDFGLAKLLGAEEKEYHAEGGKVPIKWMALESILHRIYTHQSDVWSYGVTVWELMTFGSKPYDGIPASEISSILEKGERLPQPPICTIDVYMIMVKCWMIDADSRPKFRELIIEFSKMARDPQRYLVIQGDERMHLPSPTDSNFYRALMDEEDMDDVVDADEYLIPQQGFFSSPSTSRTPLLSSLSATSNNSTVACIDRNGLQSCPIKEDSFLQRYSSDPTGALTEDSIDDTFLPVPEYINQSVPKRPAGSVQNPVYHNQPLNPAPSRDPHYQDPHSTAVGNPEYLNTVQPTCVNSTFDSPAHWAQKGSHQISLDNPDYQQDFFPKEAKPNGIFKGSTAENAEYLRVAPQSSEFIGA
- assay_text: EGFR in-cell Western (ICW) screening protocol
- Type: cell-based
- Set-up: unit not given here
- conditions: re-test

{"compound": "COc1ccc(NC(c2ccccn2)c2ccc3cccnc3c2O)cc1 (stereo not drawn)", "ICW Re-Test": 45.86}
{"compound": "CCN1CCN(C(c2ccc(C(F)(F)F)cc2)c2ccc3cccnc3c2O)CC1 (stereo not drawn)", "ICW Re-Test": 52.63}
{"compound": "COc1ccc(Cl)cc1C(Nc1ccccn1)c1cc(Cl)c2cccnc2c1O (stereo not drawn)", "ICW Re-Test": 68.79}

----------
- Test system: MDBK line
- assay_text: MTT Cell Proliferation Assay, MDBK line
- Assay type: cell-based, bovine
- conditions: Bos taurus, MDBK, 72 h; second value of A431/MDBK pair; read-out: MTT-72 h MDBK

{"molecule": "Cc1cccc(NC(c2ccccc2C)c2ccc3ccc(C)nc3c2O)n1 (centres unmarked) [compound 10026]", "IC50 (µM)": 5.19}
{"molecule": "Cc1cccc(NC(c2ccc(C)s2)c2ccc3ccc(C)nc3c2O)n1 (centres unmarked) [compound 10952]", "IC50 (µM)": 7.77}
{"molecule": "CCN1CCN(C(c2ccc(C(F)(F)F)cc2)c2ccc3cccnc3c2O)CC1 (centres unmarked) [compound 10535]", "IC50 (µM)": 3.95}
{"molecule": "CCN(CC)c1ccc(C(Nc2ccccn2)c2ccc3cccnc3c2O)cc1 (centres unmarked) [compound 10965]", "IC50 (µM)": 3.83}
{"molecule": "CCc1ccc(C(Nc2ccccn2)c2ccc3cccnc3c2O)cc1 (centres unmarked) [compound 10041]", "IC50 (µM)": 2.94}
{"molecule": "COc1ccc(C(Nc2ccccn2)c2ccc3ccc(C)nc3c2O)cc1C (centres unmarked) [compound 1979]", "IC50 (µM)": 5.38}
{"molecule": "COc1ccc(C(Nc2cc(C)ccn2)c2ccc3cccnc3c2O)cc1OC (centres unmarked) [compound 1969]", "IC50 (µM)": 13.6}
{"molecule": "Cc1ccnc(NC(c2ccc3cccnc3c2O)c2c(O)cccc2Cl)c1 (centres unmarked) [compound 10067]", "IC50 (µM)": 3.45}
{"molecule": "COc1ccccc1NC(c1cccnc1)c1ccc2cccnc2c1O (centres unmarked) [compound 11102]", "IC50 (µM)": 7.66}
{"molecule": "Cc1ccc2ccc(C(Nc3ccccn3)c3ccc(F)cc3)c(O)c2n1 (centres unmarked) [compound 10045]", "IC50 (µM)": 9.85}
{"molecule": "Oc1c(C(Nc2ccccn2)c2c(F)cccc2Cl)cc(Cl)c2cccnc12 (centres unmarked) [compound 10105]", "IC50 (µM)": 1.45}
{"molecule": "O=[N+]([O-])c1cccc(C(Nc2cccnc2)c2cc(Cl)c3cccnc3c2O)c1 (centres unmarked) [compound 10947]", "IC50 (µM)": 2.66}
{"molecule": "COc1ccc(C)cc1NC(c1ccc(F)cc1)c1ccc2cccnc2c1O (centres unmarked) [compound 11014]", "IC50 (µM)": 4.32}
{"molecule": "Cc1ccccc1C(Nc1ccccn1)c1ccc2cccnc2c1O (centres unmarked) [compound 10019]", "IC50 (µM)": 5.25}
{"molecule": "COc1ccc(C(Nc2ccccn2)c2ccc3cccnc3c2O)cc1 (centres unmarked) [compound 10524]", "IC50 (µM)": 5.09}
{"molecule": "Cc1ccnc(NC(c2ccncc2)c2ccc3cccnc3c2O)c1 (centres unmarked) [compound 10968]", "IC50 (µM)": 7.84}
{"molecule": "CCOc1cc(C(Nc2ccccn2)c2ccc3cccnc3c2O)ccc1OC (centres unmarked) [compound 1968]", "IC50 (µM)": 6.15}
{"molecule": "CCC(=O)NC(c1cccs1)c1cc([N+](=O)[O-])c2cccnc2c1O (centres unmarked) [compound 10960]", "IC50 (µM)": 1.02}
{"molecule": "Oc1c(C(Nc2ccccn2)c2ccc(Cl)cc2Cl)ccc2cccnc12 (centres unmarked) [compound 10484]", "IC50 (µM)": 0.85}
{"molecule": "Fc1cccc(C(Nc2ccccn2)c2ccc3cccnc3c2)c1 (centres unmarked) [compound 11191]", "IC50 (µM)": 5.53}
{"molecule": "CCOc1ccccc1C(Nc1ccccn1)c1ccc2ccc(C)nc2c1O (centres unmarked) [compound 10049]", "IC50 (µM)": 11.5}
{"molecule": "Cc1ccnc(NC(c2ccc(C(F)(F)F)cc2)c2ccc3cccnc3c2O)c1 (centres unmarked) [compound 10486]", "IC50 (µM)": 0.8}
{"molecule": "Oc1ccccc1C(Nc1ccccn1)c1ccc2cccnc2c1O (centres unmarked) [compound 10427]", "IC50 (µM)": 4.82}

----------
- assay_text: Stability on incubation with human liver microsomes (HLM)
- Type: in vitro ADME
- conditions: percentage left after incubation with human liver microsomes for 30 minutes
Measured HLM % Remaining@ 30 Min, listed per entry.
experimental_readout: HLM % Remaining@ 30 Min

{"molecule": "Cc1cc(Cl)cnc1NC(c1ccc(Cl)cc1Cl)c1ccc2cccnc2c1O (stereo not drawn)", "assay_result": "89%"}
{"molecule": "Oc1c(C(Nc2ccc(Cl)cn2)c2cc(Cl)ccc2Cl)ccc2cccnc12 (stereo not drawn)", "assay_result": "88%"}
{"molecule": "Oc1c(C(Nc2ccc(Cl)cn2)c2ccc(Cl)c(Cl)c2)ccc2cccnc12 (stereo not drawn)", "assay_result": "80%"}

----------
- assay_text: Stability on incubation with mouse liver microsomes (MLM)
- Assay type: in vitro ADME
- conditions: percentage left after incubation with mouse liver microsomes for 30 minutes
Measured MLM % Remaining@ 30 Min, listed per entry.

{"compound": "Oc1c(C(Nc2ccc(Cl)cn2)c2cc(Cl)ccc2Cl)ccc2cccnc12 (stereo not shown)", "MLM % Remaining@ 30 Min (%)": 60}
{"compound": "Oc1c(C(Nc2ccc(C(F)(F)F)nc2)c2ccc(C(F)(F)F)c(F)c2)ccc2cccnc12 (stereo not shown)", "MLM % Remaining@ 30 Min (%)": 40}
{"compound": "COc1ccc(C(Nc2cccc(C)n2)c2ccc3cccnc3c2O)cc1O (stereo not shown)", "MLM % Remaining@ 30 Min (%)": 13}
{"compound": "Cc1cc(Cl)cnc1NC(c1ccc(C(F)(F)F)cc1)c1ccc2cccnc2c1O (stereo not shown)", "MLM % Remaining@ 30 Min (%)": 81}
{"compound": "Oc1c(C(Nc2ccc(Cl)cn2)c2ccc(Cl)c(C(F)(F)F)c2)ccc2cccnc12 (stereo not shown)", "MLM % Remaining@ 30 Min (%)": 46}
{"compound": "Oc1c(C(Nc2ccc(C(F)(F)F)cn2)c2ccc(Cl)cc2Cl)ccc2cccnc12 (stereo not shown)", "MLM % Remaining@ 30 Min (%)": 84}
{"compound": "Oc1c(C(Nc2cc(Cl)ccn2)c2ccc(F)cc2F)ccc2cccnc12 (stereo not shown)", "MLM % Remaining@ 30 Min (%)": 26}
{"compound": "Oc1c(C(Nc2ccc(F)cn2)c2cc(Cl)cc(Cl)c2Cl)ccc2cccnc12 (stereo not shown) [AD4-13132]", "MLM % Remaining@ 30 Min (%)": 66}
{"compound": "Cc1ccnc(NC(c2cc(Cl)cc(Cl)c2)c2ccc3cccnc3c2O)c1 (stereo not shown)", "MLM % Remaining@ 30 Min (%)": 25}
{"compound": "Cc1cccc(NC(c2cccc(C(F)(F)F)c2)c2ccc3cccnc3c2O)n1 (stereo not shown)", "MLM % Remaining@ 30 Min (%)": 18}
{"compound": "Oc1c(C(Nc2ccc(C(F)(F)F)cn2)c2cc(C(F)(F)F)ccc2Cl)ccc2cccnc12 (stereo not shown)", "MLM % Remaining@ 30 Min (%)": 85}
{"compound": "Oc1c(C(Nc2ccc(Cl)cn2)c2ccc(C(F)(F)F)cc2)ccc2cccnc12 (stereo not shown)", "MLM % Remaining@ 30 Min (%)": 46}
{"compound": "Cc1cccc(NC(c2cc(Cl)cc(Cl)c2Cl)c2ccc3cccnc3c2O)n1 (stereo not shown)", "MLM % Remaining@ 30 Min (%)": 60}
{"compound": "Cc1ccnc(NC(c2ccc(Cl)cc2Cl)c2ccc3cccnc3c2O)c1 (stereo not shown)", "MLM % Remaining@ 30 Min (%)": 10}
{"compound": "Cc1cc(NC(c2ccc(Cl)c(C(F)(F)F)c2)c2ccc3cccnc3c2O)ncc1Cl (stereo not shown)", "MLM % Remaining@ 30 Min (%)": 25}
{"compound": "Cc1cccc(NC(c2ccc(C(F)(F)F)cc2)c2ccc3cccnc3c2O)n1 (stereo not shown)", "MLM % Remaining@ 30 Min (%)": 3}
{"compound": "Oc1c(C(Nc2ccc(C(F)(F)F)cn2)c2ccc(F)cc2F)ccc2cccnc12 (stereo not shown)", "MLM % Remaining@ 30 Min (%)": 77}
{"compound": "Cc1cccc(NC(c2ccc(Cl)cc2Cl)c2ccc3cccnc3c2O)n1 (stereo not shown)", "MLM % Remaining@ 30 Min (%)": 17}
{"compound": "Oc1c(C(Nc2cccnc2)c2cccc(Cl)c2Cl)ccc2cccnc12 (stereo not shown)", "MLM % Remaining@ 30 Min (%)": 6}
{"compound": "Oc1c(C(Nc2ncc(Cl)cc2F)c2ccc(Cl)cc2Cl)ccc2cccnc12 (stereo not shown)", "MLM % Remaining@ 30 Min (%)": 76}
{"compound": "Cc1cc(NC(c2ccc(Cl)c(Cl)c2)c2ccc3cccnc3c2O)ncc1Cl (stereo not shown)", "MLM % Remaining@ 30 Min (%)": 71}
{"compound": "Oc1c(C(Nc2ccc(Cl)cn2)c2ccc(C(F)(F)F)c(F)c2)ccc2cccnc12 (stereo not shown)", "MLM % Remaining@ 30 Min (%)": 57}

Ref: patent US9073858B2
